- System: 171881-019-R-J1-PDC tumor spheroid viability
- assayNotes: Anticancer human tumor 171881-019-R-J1-PDC patient-derived invasive breast carcinoma cell line growth inhibition [PI3K]
- runConditions: second compound 0.316 µM; first compound 1 µM; hits give low values; spheroids with HUVEC and MSC
quantityName: viability, T/C

molecule	testTarget	viability, T/C
C[C@@H](NC(=O)c1ncnc(N)c1Cl)c1ncc(C(=O)Nc2cc(C(F)(F)F)c(Cl)cn2)s1 + CC(Nc1ncnc2nc[nH]c12)c1cc2cccc(Cl)c2c(=O)n1-c1ccccc1	171881-019-R-J1-PDC tumor spheroid viability	83.2%

Look up viability, T/C: CNC(=O)c1ccc(N2C(=S)N(c3ccc(C#N)c(C(F)(F)F)c3)C(=O)C2(C)C)cc1F + COc1c(OCCCN2CCOCC2)ccc2c3n(c(=NC(=O)c4cnc(N)nc4)nc12)CCN3
2.17%

Look up viability, T/C: CC(C)NCC(C(=O)N1CCN(c2ncnc3c2C(C)CC3O)CC1)c1ccc(Cl)cc1 (stereo unspecified) + CC(Nc1ncnc2nc[nH]c12)c1cc2cccc(Cl)c2c(=O)n1-c1ccccc1
30%

Look up viability, T/C: Cn1nccc1Nc1nccc(-c2ccn(C(CO)c3ccc(Cl)c(F)c3)c(=O)c2)n1 (stereo unspecified) + CC(Nc1ncnc2nc[nH]c12)c1cc2cccc(Cl)c2c(=O)n1-c1ccccc1
35.1%

Look up viability, T/C: C#Cc1c(F)ccc2cc(O)cc(-c3ncc4c(N5CC6CCC(C5)N6)nc(OCC56CCCN5CC(F)C6)nc4c3F)c12 (stereo unspecified) + CC(Nc1ccc2c(c1)OCCn1cc(N3C(=O)OCC3C(F)F)nc1-2)C(N)=O
7.74%

Look up viability, T/C: C[C@@H](NC(=O)c1ncnc(N)c1Cl)c1ncc(C(=O)Nc2cc(C(F)(F)F)c(Cl)cn2)s1 + Cc1nc(NC(=O)N2CCCC2C(N)=O)sc1-c1ccnc(C(C)(C)C(F)(F)F)c1
47.3%

Look up viability, T/C: Cn1nccc1Nc1nccc(-c2ccn(C(CO)c3ccc(Cl)c(F)c3)c(=O)c2)n1 (stereo unspecified) + Cc1nc(NC(=O)N2CCCC2C(N)=O)sc1-c1ccnc(C(C)(C)C(F)(F)F)c1
14.6%

Look up viability, T/C: CCN1CCN(Cc2ccc(Nc3ncc(F)c(-c4cc(F)c5nc(C)n(C(C)C)c5c4)n3)nc2)CC1 + CC(Nc1ncnc2nc[nH]c12)c1cc2cccc(Cl)c2c(=O)n1-c1ccccc1
116%

Look up viability, T/C: Cn1ncc(Cl)c1-c1cc(C(=O)NC(CN)Cc2cccc(F)c2)sc1Cl (stereo unspecified) + COc1c(OCCCN2CCOCC2)ccc2c3n(c(=NC(=O)c4cnc(N)nc4)nc12)CCN3
1.64%

Look up viability, T/C: CC(Cn1ccc(-c2ccc(C#N)c(Cl)c2)n1)NC(=O)c1cc(C(C)O)[nH]n1 (stereo unspecified) + CC(Nc1ccc2c(c1)OCCn1cc(N3C(=O)OCC3C(F)F)nc1-2)C(N)=O
27%

Look up viability, T/C: CCN1CCN(Cc2ccc(Nc3ncc(F)c(-c4cc(F)c5nc(C)n(C(C)C)c5c4)n3)nc2)CC1 + CC(Nc1ccc2c(c1)OCCn1cc(N3C(=O)OCC3C(F)F)nc1-2)C(N)=O
55.6%

* * *

The entries below are paired with their reported viability, T/C.
- Tested on: 171881-019-R-J1-PDC tumor spheroid viability
- assayNotes: Anticancer human tumor 171881-019-R-J1-PDC cell line growth inhibition [PI3K];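 note: spheroids exposed to compound for 7 days before viability read; 100% = DMSO vehicle-treated spheroids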
- runConditions: second compound 0.0316 µM; first compound 10 µM; hits give low values; spheroids with HUVEC and MSC

molecule	testTarget	viability, T/C
Cn1ncc(Cl)c1-c1cc(C(=O)NC(CN)Cc2cccc(F)c2)sc1Cl (configuration not stated) + CC(Nc1ncnc2nc[nH]c12)c1cc2cccc(Cl)c2c(=O)n1-c1ccccc1	171881-019-R-J1-PDC tumor spheroid viability	3.64%

Look up viability, T/C: C#Cc1c(F)ccc2cc(O)cc(-c3ncc4c(N5CC6CCC(C5)N6)nc(OCC56CCCN5CC(F)C6)nc4c3F)c12 (configuration not stated) + CC(Nc1ncnc2nc[nH]c12)c1cc2cccc(Cl)c2c(=O)n1-c1ccccc1
29.4%

Look up viability, T/C: CCCS(=O)(=O)Nc1ccc(F)c(C(=O)c2c[nH]c3ncc(-c4ccc(Cl)cc4)cc23)c1F + CC(Nc1ccc2c(c1)OCCn1cc(N3C(=O)OCC3C(F)F)nc1-2)C(N)=O
7.38%

Look up viability, T/C: CC(C)NCC(C(=O)N1CCN(c2ncnc3c2C(C)CC3O)CC1)c1ccc(Cl)cc1 (configuration not stated) + CC(Nc1ncnc2nc[nH]c12)c1cc2cccc(Cl)c2c(=O)n1-c1ccccc1
11.4%

Look up viability, T/C: CC(Cn1ccc(-c2ccc(C#N)c(Cl)c2)n1)NC(=O)c1cc(C(C)O)[nH]n1 (configuration not stated) + CC(Nc1ncnc2nc[nH]c12)c1cc2cccc(Cl)c2c(=O)n1-c1ccccc1
59.1%

Look up viability, T/C: CC(Cn1ccc(-c2ccc(C#N)c(Cl)c2)n1)NC(=O)c1cc(C(C)O)[nH]n1 (configuration not stated) + Cc1nc(NC(=O)N2CCCC2C(N)=O)sc1-c1ccnc(C(C)(C)C(F)(F)F)c1
62.8%

Look up viability, T/C: CC1(C)CCC(CN2CCN(c3ccc(C(=O)NS(=O)(=O)c4ccc(NCC5CCOCC5)c([N+](=O)[O-])c4)c(Oc4cnc5[nH]ccc5c4)c3)CC2)=C(c2ccc(Cl)cc2)C1 + CC(Nc1ncnc2nc[nH]c12)c1cc2cccc(Cl)c2c(=O)n1-c1ccccc1
14.3%
